IC50 listing for selected compounds.
target: SAE1 (Homo sapiens (Human), UniProt Q9UBE0+Q9UBT2); test: SAE High Throughput Biochemical Assay (HTRF), 15 min preincubation; conditions: read-out: 15 min preincubation HTRF IC50 (μM) Ave, SAE1 12.5 nM, ATP 100 μM
Sequence (Q9UBE0 whole entry): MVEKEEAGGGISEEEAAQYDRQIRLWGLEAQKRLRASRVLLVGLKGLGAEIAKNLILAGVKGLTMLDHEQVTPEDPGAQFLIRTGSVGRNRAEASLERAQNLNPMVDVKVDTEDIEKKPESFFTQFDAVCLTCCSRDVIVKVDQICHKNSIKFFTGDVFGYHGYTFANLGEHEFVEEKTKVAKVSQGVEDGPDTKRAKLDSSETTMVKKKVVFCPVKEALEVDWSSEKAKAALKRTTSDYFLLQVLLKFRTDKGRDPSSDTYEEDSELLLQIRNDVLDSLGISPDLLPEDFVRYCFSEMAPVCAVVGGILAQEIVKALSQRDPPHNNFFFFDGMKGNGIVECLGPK
Sequence (Q9UBT2 whole entry): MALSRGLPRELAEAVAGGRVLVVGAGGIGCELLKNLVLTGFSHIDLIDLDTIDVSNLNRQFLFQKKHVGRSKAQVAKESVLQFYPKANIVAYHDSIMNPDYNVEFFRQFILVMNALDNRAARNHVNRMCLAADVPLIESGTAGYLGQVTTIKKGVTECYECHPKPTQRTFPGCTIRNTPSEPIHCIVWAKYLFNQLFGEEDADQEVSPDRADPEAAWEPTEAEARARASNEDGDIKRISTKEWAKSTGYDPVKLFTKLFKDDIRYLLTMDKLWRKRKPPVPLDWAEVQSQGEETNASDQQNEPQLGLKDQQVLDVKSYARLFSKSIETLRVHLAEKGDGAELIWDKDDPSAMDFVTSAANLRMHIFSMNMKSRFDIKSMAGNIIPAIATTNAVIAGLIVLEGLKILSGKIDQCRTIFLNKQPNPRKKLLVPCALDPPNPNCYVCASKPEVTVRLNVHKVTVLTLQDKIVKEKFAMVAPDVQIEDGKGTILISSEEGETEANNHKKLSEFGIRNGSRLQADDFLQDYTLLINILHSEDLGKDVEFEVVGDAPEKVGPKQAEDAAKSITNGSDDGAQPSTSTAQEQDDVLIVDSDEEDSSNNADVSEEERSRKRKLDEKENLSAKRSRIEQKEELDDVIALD
Test readout: IC50 (µM)

                                    compound  op  observed_measurement
 0  CN(C)CC#CC(=O)N1Cc2sc(C#N)cc2[C@H](c2ccccc2-c2c[nH]nc2C(F)(F)F)C1   =                  0.18
 1  CCn1cc(-c2ccccc2[C@@H]2CN(C(=O)C#CC3CCCN3)Cc3sc(C#N)cc32)c(C(F)(F)F)n1 (stereo partly drawn)   =                  0.07
 2  CN(C)C/C=C/C(=O)N1Cc2sc(C#N)cc2[C@H](c2ccccc2C#N)C1   >                    25
 3  C=CC(=O)N1Cc2sc(C#N)c(C)c2[C@H](c2cccc(F)c2-c2cn(CC)nc2C(F)(F)F)C1   =                   0.1
 4  CN(C)C/C=C/C(=O)N1Cc2sc(C#N)cc2[C@H](c2ccccc2-c2cn(-c3ccncc3F)nc2C(F)(F)F)C1   =                  18.6
 5  CCn1cc(-c2c(C3CN(C(=O)/C=C/CN(C)C)Cc4sc(C#N)cc43)csc2C)c(C(F)(F)F)n1 (stereo not drawn)   =                  2.87
 6  CCn1cc(-c2ccccc2[C@@H]2CN(C(=O)/C=C/[C@H](N)CO)Cc3sc(C#N)cc32)c(C(F)(F)F)n1   =                  21.9
 7  CCn1cc(-c2c(Cl)cc(F)cc2C2CN(C(=O)/C=C/CN(C)C)Cc3sc(C#N)cc32)c(C(F)(F)F)n1 (stereo not drawn)   =                  6.37
 8  CCn1cc(-c2ccccc2[C@@H]2CN(C(=O)/C=C/CN(C)Cc3ccccc3)Cc3sc(C#N)cc32)c(C(F)(F)F)n1   =                  8.44
 9  Cc1c(C#N)sc2c1[C@H](c1cccc(F)c1-c1cn(C)nc1C(F)(F)F)CN(C(=O)/C=C/CN(C)C)C2   =                 0.067
10  CCn1cc(-c2ccccc2[C@@H]2CN(C(=O)/C=C/CN3CCC(c4ccccc4)C3)Cc3sc(C#N)cc32)c(C(F)(F)F)n1 (stereo partly drawn)   >                    25
11  CCn1cc(-c2ccccc2[C@@H]2CN(C(=O)/C=C/CNC(C)C)Cc3sc(C#N)cc32)c(C(F)(F)F)n1   =                  2.42
12  CCn1cc(-c2ccccc2[C@@H]2CN(C(=O)/C=C/C(C)(C)N)Cc3sc(C#N)cc32)c(C(F)(F)F)n1   >                    25
13  CCn1cc(-c2c(F)cccc2[C@@H]2CN(C(=O)/C=C/CN[C@@H]3CCOC3)Cc3sc(C#N)cc32)c(C(F)(F)F)n1   =                  1.66
14  CCn1cc(-c2c(F)cccc2[C@@H]2CN(C(=O)/C=C/CNC)Cc3sc(C#N)cc32)c(C(F)(F)F)n1   =                  0.51
15  CCn1cc(-c2ccccc2[C@@H]2CN(C(=O)C#C[C@@]3(C)CCCN3)Cc3sc(C#N)cc32)c(C(F)(F)F)n1   =                  0.35
16  CCn1cc(-c2ccccc2[C@@H]2CN(C(=O)/C=C/[C@H]3CCCN3)Cc3sc(C#N)cc32)c(C(F)(F)F)n1   =                  1.61
17  CCn1cc(-c2c(F)cccc2C2CN(C(=O)/C=C/CN(C)C)Cc3sc(C#N)cc32)c(C(F)(F)F)n1 (stereo not drawn)   =                  2.23
18  CCn1cc(-c2ccccc2[C@@H]2CN(C(=O)/C=C/CN)Cc3sc(C#N)cc32)c(C(F)(F)F)n1   =                  1.23
19  CCn1cc(-c2c(F)cc(F)cc2C2CN(C(=O)/C=C/CN(C)C)Cc3sc(C#N)cc32)c(C(F)(F)F)n1 (stereo not drawn)   =                  2.16
20  CCn1cc(-c2ccccc2[C@@H]2CN(C(=O)/C=C/CN3CCCC3C)Cc3sc(C#N)cc32)c(C(F)(F)F)n1 (stereo partly drawn)   =                  10.2
21  CCn1cc(-c2ccccc2[C@@H]2CN(C(=O)/C=C/CN(C)C)Cc3sc(C#N)c(Cl)c32)c(C(F)(F)F)n1   =                  1.66
22  CCn1cc(-c2c(F)cccc2[C@@H]2CN(C(=O)/C=C/[C@@H]3C[C@@H](OC)CN3)Cc3sc(C#N)cc32)c(C(F)(F)F)n1   =                  0.31
23  CCn1cc(-c2c(C3CN(C(=O)/C=C/CN(C)C)Cc4sc(C#N)cc43)ccc(F)c2F)c(C(F)(F)F)n1 (stereo not drawn)   =                  8.37
24  CCn1cc(-c2c(Cl)cccc2C2CN(C(=O)/C=C/CN(C)C)Cc3sc(C#N)cc32)c(C(F)(F)F)n1 (stereo not drawn)   =                  1.56
25  CN(C)C/C=C/C(=O)N1Cc2sc(C#N)cc2[C@H](c2ccccc2-c2cn(CCc3ccncc3)nc2C(F)(F)F)C1   =                   6.3
26  CCn1cc(-c2c(F)cccc2[C@@H]2CN(C(=O)/C=C/CNC3CCN(C(C)=O)C3)Cc3sc(C#N)cc32)c(C(F)(F)F)n1 (stereo partly drawn)   =                  6.06
